- experimental system: CD33 (Sino Biological, Cat #12238-H08H) (UniProt P20138 18-259)
- Sequence (P20138 18-259 limits assumed): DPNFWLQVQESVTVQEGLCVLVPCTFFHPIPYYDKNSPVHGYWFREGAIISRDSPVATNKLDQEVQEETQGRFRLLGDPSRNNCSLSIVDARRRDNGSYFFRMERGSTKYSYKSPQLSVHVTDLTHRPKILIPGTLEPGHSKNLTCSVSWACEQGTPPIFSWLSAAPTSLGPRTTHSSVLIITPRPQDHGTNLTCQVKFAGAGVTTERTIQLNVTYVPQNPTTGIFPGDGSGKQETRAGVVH
- experiment summary: BLI, IgG captured on anti-human Fc sensor, 50 nM CD33, pH 7.4 vs pH 5.4
value type: binding result

[[record]]
binder = "MYT2657 (antibody, V domains shown, IgG; vadastuximab VL variant #5 (D28H)) VH: QVQLVQSGAEVKKPGASVKVSCKASGYTFTNYDINWVRQAPGQGLEWIGWIYPGDGSTKYNEKFKAKATLTADTSTSTAYMELRSLRSDDTAVYYCASGYEDAMDYWGQGTTVTVSS VL: DIQMTQSPSSLSASVGDRVTINCKASQHINSYLSWFQQKPGKAPKTLIYRANRLVDGVPSRFSGSGSGQDYTLTISSLQPEDFATYYCLQYDEFPLTFGGGTKVEIK"
result = "binds"

[[record]]
binder = "MYT1620 (antibody, V domains shown, IgG; gemtuzumab VL variant #31 (S101H)) VH: EVQLVQSGAEVKKPGSSVKVSCKASGYTITDSNIHWVRQAPGQSLEWIGYIYPYNGGTDYNQKFKNRATLTVDNPTNTAYMELSSLRSEDTDFYYCVNGNPWLAYWGQGTLVTVSS VL: DIQLTQSPSTLSASVGDRVTITCRASESLDNYGIRFLTWFQQKPGKAPKLLMYAASNQGSGVPSRFSGSGSGTEFTLTISSLQPDDFATYYCQQTKEVPWHFGQGTKVEVK"
result = "binds"

[[record]]
binder = "MYT2635 (antibody, V domains shown, IgG; IMGN779 VL variant #19 (A57H)) VH: QVQLQQPGAEVVKPGASVKMSCKASGYTFTSYYIHWIKQTPGQGLEWVGVIYPGNDDISYNQKFQGKATLTADKSSTTAYMQLSSLTSEDSAVYYCAREVRLRYFDVWGQGTTVTVSS VL: EIVLTQSPGSLAVSPGERVTMSCKSSQSVFFSSSQKNYLAWYQQIPGQSPRLLIYWHSTRESGVPDRFTGSGSGTDFTLTISSVQPEDLAIYYCHQYLSSRTFGQGTKLEIK"
result = "binds"

